Assay: self-splicing fitness, log relative to wild type (ln ratio); higher = more splicing; Tetrahymena group I intron in knt gene, E. coli kanamycin selection, DiMSum; sequences stand for … in CUCUCU…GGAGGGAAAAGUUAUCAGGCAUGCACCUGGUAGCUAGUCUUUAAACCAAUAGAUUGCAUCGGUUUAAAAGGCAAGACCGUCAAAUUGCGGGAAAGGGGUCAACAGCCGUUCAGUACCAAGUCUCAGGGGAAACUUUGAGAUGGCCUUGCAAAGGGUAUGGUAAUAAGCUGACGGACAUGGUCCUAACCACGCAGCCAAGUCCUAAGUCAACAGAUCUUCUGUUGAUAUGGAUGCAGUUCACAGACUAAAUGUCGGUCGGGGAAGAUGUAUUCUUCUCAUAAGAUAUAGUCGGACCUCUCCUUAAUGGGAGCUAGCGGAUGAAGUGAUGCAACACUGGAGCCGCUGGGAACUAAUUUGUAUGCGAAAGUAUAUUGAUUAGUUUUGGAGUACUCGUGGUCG;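 note: selection with 25 µg/mL kanamycin versus none on LB agar overnight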
Conditions: 30 °C
Please enter satisfied where self-splicing fitness (ln) is greater than or equal to -3, and not satisfied where it is lower.

Worked set:
RECORD_SEQUENCE	CLASSIFICATION
UGACAGCAAUAUUACGAGGA	satisfied
UGGUAGCAAUAUUACGGGCU	satisfied

Please check the record UCAGAGCAAUAUUACGGGCU and state if its self-splicing fitness (ln) is at or above -3.
not satisfied

Check if self-splicing fitness (ln) >= -3 (inclusive). Item: CUGGAGCAAUAUUACGACUU
not satisfied

self-splicing fitness (ln) >= -3 for AUUCAGCAAUAUUACGAGUG ?
satisfied

###

Assay: self-splicing fitness, log relative to wild type (ln ratio); higher = more splicing; Tetrahymena group I intron in knt gene, E. coli kanamycin selection, DiMSum; sequences stand for … in CUCUCU…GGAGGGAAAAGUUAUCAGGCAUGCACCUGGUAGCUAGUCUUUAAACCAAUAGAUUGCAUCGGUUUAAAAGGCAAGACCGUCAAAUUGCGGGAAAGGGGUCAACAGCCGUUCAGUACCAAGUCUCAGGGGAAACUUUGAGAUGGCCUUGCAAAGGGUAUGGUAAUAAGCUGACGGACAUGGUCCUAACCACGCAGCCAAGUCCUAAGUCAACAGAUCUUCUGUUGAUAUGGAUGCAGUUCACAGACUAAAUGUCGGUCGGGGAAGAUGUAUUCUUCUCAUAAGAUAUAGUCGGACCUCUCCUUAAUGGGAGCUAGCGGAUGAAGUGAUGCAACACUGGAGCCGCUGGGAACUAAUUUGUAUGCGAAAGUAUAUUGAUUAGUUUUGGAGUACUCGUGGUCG
Conditions: 30 °C
The threshold is inclusive: self-splicing fitness (ln) of exactly -2 counts as label 1; values below receive label 0.

// known answers, use as guide
RECORD_SEQUENCE	CLASSIFICATION
CAUCAGCAAUAUUACGUCGU	label 1
AAGAAGCAAUAUUACGUUGC	label 0

Attention now shifts to the item below.
Determine whether this sequence has self-splicing fitness (ln) no lower than -2: AUUGAGCAAUAUUACGAAUG
label 0

###

Experiment: self-splicing fitness, log relative to wild type (ln ratio); higher = more splicing; Tetrahymena group I intron in knt gene, E. coli kanamycin selection, DiMSum; sequences stand for … in CUCUCU…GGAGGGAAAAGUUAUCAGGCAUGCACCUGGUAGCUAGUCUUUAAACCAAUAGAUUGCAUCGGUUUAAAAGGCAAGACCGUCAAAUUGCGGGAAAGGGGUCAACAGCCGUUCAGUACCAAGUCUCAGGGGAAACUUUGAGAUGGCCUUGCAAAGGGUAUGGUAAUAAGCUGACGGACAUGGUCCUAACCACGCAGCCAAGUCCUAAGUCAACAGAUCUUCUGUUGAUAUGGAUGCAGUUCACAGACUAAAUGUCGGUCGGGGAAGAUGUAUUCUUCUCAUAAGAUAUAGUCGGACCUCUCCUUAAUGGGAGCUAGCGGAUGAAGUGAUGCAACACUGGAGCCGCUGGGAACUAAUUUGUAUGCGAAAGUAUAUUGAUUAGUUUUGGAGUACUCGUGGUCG
Conditions: 30 °C
# label = met if self-splicing fitness (ln) >= -3 else not met

Example entries and their recorded answers appear below.
RECORD_SEQUENCE	CLASSIFICATION
GGCUAGCAAUAUUACGUGCU	met
AUUGAGCAAUAUUACGGCGC	met
GCCUAGCAAUAUUACGCAGC	not met
GAUGAGCAAUAUUACGGUCC	not met
AUUCAGCAAUAUUACGAUUU	met

Consider the additional sequence presented here.
Decide: self-splicing fitness (ln) of GUGUAGCAAUAUUACGAACA >= -3?
met

###

Experiment: self-splicing fitness, log relative to wild type (ln ratio); higher = more splicing; Tetrahymena group I intron in knt gene, E. coli kanamycin selection, DiMSum; sequences stand for … in CUCUCU…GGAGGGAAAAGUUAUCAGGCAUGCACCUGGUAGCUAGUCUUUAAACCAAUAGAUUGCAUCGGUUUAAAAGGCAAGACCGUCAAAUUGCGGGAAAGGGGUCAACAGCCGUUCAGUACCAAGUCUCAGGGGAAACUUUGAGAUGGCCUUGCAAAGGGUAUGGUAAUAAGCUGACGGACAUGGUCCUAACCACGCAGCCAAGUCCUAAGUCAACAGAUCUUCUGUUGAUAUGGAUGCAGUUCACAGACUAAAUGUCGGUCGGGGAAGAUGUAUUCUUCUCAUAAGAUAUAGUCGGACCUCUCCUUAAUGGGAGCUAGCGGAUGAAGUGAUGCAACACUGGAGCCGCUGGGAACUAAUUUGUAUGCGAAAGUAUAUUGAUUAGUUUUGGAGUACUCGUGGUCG
Conditions: 30 °C
Known self-splicing fitness (ln) of a selection of sequences
Just the number, please, no unit after it.

Some sequences with recorded self-splicing fitness (ln):
RECORD_SEQUENCE	self-splicing fitness (ln)
AAUUAGCAAUAUUACGGAUC	-0.415
UCGCAGCAAUAUUACGGUCG	-0.126
GUAUAGCAAUAUUACGGCAC	-0.331

Which value of self-splicing fitness (ln) has been reported for GGGAAGCAAUAUUACGUACU in the records?
-2.15

What value of self-splicing fitness (ln) has been reported for the following sequence? UUCUAGCAAUAUUACGCACG
-1.26

So what's the measured self-splicing fitness (ln) for this one? GGCCAGCAAUAUUACGUGAU
-1.31

Can you share its self-splicing fitness (ln)? I mean this sequence: GCACAGCAAUAUUACGAUUU
-0.869

Suppose we examine the sequence GCUGAGCAAUAUUACGUACC ; what self-splicing fitness (ln) value has been reported?
-1.54

###

Experiment: self-splicing fitness, log relative to wild type (ln ratio); higher = more splicing; Tetrahymena group I intron in knt gene, E. coli kanamycin selection, DiMSum; sequences stand for … in CUCUCU…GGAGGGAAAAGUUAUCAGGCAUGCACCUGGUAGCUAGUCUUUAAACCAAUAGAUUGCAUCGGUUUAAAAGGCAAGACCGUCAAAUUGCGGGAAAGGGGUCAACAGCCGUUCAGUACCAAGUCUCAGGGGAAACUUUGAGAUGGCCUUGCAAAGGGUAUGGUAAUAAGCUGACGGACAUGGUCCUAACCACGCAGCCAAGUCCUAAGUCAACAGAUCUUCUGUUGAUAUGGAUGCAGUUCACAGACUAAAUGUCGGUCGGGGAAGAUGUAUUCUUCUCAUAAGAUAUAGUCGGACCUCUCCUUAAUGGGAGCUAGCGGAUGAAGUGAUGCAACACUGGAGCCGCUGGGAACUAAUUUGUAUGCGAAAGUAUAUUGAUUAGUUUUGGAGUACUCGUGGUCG
Details: 37 °C
Response key: satisfied means self-splicing fitness (ln) >= -1; not satisfied means self-splicing fitness (ln) < -1.

RECORD_SEQUENCE	CLASSIFICATION
AUUCAGCAAUAUUACGAGAG	not satisfied
CUAAAGCAAUAUUACGGCUU	not satisfied
ACGUAGCAAUAUUACGAGUA	not satisfied
GAACAGCAAUAUUACGGCGU	satisfied
CGAUAGCAAUAUUACGGAAA	not satisfied
CCGAAGCAAUAUUACGCUAU	not satisfied
AUCCAGCAAUAUUACGCAGU	satisfied
UCCAAGCAAUAUUACGAGAG	not satisfied

Entry GUUAAGCAAUAUUACGGCUU : is its self-splicing fitness (ln) no less than -1?
satisfied

Does the sequence UAGCAGCAAUAUUACGGCCG have recorded self-splicing fitness (ln) that is -1 or more?
satisfied

###

Test: self-splicing fitness, log relative to wild type (ln ratio); higher = more splicing; Tetrahymena group I intron in knt gene, E. coli kanamycin selection, DiMSum; sequences stand for … in CUCUCU…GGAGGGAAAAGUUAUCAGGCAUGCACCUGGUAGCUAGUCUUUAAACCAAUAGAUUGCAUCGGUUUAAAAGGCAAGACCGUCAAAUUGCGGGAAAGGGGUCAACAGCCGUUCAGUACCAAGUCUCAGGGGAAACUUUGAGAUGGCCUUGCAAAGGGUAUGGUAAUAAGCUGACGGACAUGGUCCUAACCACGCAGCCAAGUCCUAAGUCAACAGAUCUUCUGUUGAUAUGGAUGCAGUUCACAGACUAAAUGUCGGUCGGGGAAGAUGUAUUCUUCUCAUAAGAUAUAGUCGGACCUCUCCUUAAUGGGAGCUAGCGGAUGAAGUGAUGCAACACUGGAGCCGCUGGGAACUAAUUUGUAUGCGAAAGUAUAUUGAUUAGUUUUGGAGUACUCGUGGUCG
Details: 30 °C
# binarize self-splicing fitness (ln): threshold -2 inclusive, high side 1, low side -1

RECORD_SEQUENCE	CLASSIFICATION
CGGCAGCAAUAUUACGGACC	-1
UUACAGCAAUAUUACGGUCA	1
GUAGAGCAAUAUUACGACGU	1
CCAAAGCAAUAUUACGGUGU	-1
AUUAAGCAAUAUUACGAACU	1
UUGCAGCAAUAUUACGCAAA	1
UUAGAGCAAUAUUACGCCGG	1
GAGGAGCAAUAUUACGAUUU	1

Is self-splicing fitness (ln) at least -2? Consider GACAAGCAAUAUUACGUCCA
-1

Assess whether reported self-splicing fitness (ln) for AUUUAGCAAUAUUACGACUU sits at -2 or higher.
1

hey, is self-splicing fitness (ln) for this one >= -2? UGGUAGCAAUAUUACGCGUC
-1

# check: self-splicing fitness (ln) of ACUGAGCAAUAUUACGCUAG is greater than or equal to -2
1

Hi, just wondering whether AGUGAGCAAUAUUACGGAAU shows self-splicing fitness (ln) of -2 or higher.
-1

Does the reported self-splicing fitness (ln) for UUGUAGCAAUAUUACGAGCA fall at or above the -2 mark?
1

Is self-splicing fitness (ln) for GCCGAGCAAUAUUACGCAGC at or above -2?
-1

Decide: is the reported value of self-splicing fitness (ln) for GGUGAGCAAUAUUACGGUUC equal to or greater than -2?
1

Reported self-splicing fitness (ln) reaches at least -2 for AUGUAGCAAUAUUACGCGUU ?
-1

Hi team, for GCCCAGCAAUAUUACGGUUC , is the recorded self-splicing fitness (ln) at or above -2?
1

Dear colleague, could you confirm whether AGACAGCAAUAUUACGCUCG has self-splicing fitness (ln) at or above -2?
1

In plain terms: is recorded self-splicing fitness (ln) at least -2 for UAAUAGCAAUAUUACGCUGU ?
-1

Has ACUGAGCAAUAUUACGUAGA a recorded self-splicing fitness (ln) greater than or equal to -2?
-1
